test protocol: Pharmacokinetics in rat plasma after intragastric administration, hypoxia (9.0% O2)
Format: in vivo, Sprague-Dawley rats
study conditions: male, Sprague-Dawley, po, PF 80 mg/kg single intragastric, mean ± SD, n = 6

# molecule, units label, Cmax
data = [
    ("C[C@@]12C[C@@]3(O)O[C@@H](O1)[C@]1(COC(=O)c4ccccc4)[C@H]3C[C@@]12O[C@@H]1O[C@H](CO)[C@@H](O)[C@H](O)[C@H]1O [PF, paeoniflorin]", "ng/mL", 177),
]

* * *

test protocol: Pharmacokinetics in rat plasma after intragastric administration, hypoxia (9.0% O2)
Type: in vivo, Sprague-Dawley rats
study conditions: male, Sprague-Dawley, po, AF 14 mg/kg single intragastric, mean ± SD, n = 6

# molecule, units label, Cmax
records = [
    ("CC12CC(O)C3CC1(OC1OC(CO)C(O)C(O)C1O)C3(COC(=O)c1ccccc1)C(=O)O2 (stereo not shown)", "ng/mL", 49.1),
]

* * *

test protocol: Pharmacokinetics in rat plasma after intragastric administration, hypoxia (9.0% O2)
Assay type: in vivo, Sprague-Dawley rats
study conditions: male, Sprague-Dawley, po, AF 14 mg/kg single intragastric, mean ± SD, n = 6

# compound, units label, Tmax
records = [
    ("CC12CC(O)C3CC1(OC1OC(CO)C(O)C(O)C1O)C3(COC(=O)c1ccccc1)C(=O)O2 (stereo not shown)", "min", 35),
]

* * *

test protocol: Pharmacokinetics in rat plasma after intragastric administration, normoxia (UPLC-MS/MS)
Assay type: in vivo, Sprague-Dawley rats
study conditions: male, Sprague-Dawley, rat, plasma, po, 14 mg/kg, AF (14 mg/kg) combined with PF (80 mg/kg), intragastric, mean ± SD, n = 6

# compound, Cmax (ng/mL)
rows = [
    ("CC12CC(O)C3CC1(OC1OC(CO)C(O)C(O)C1O)C3(COC(=O)c1ccccc1)C(=O)O2 (stereo not shown) [AF, albiflorin]", 42.4),
]

* * *

test protocol: Pharmacokinetics in rat plasma after intragastric administration, normoxia (UPLC-MS/MS)
Assay type: in vivo, Sprague-Dawley rats
study conditions: male, Sprague-Dawley, rat, plasma, po, 80 mg/kg, PF alone, 80 mg/kg intragastric, normoxia, mean ± SD, n = 6
metric: half-life (h)

# compound, metric, units label, experimental value
rows = [
    ("C[C@@]12C[C@@]3(O)O[C@@H](O1)[C@]1(COC(=O)c4ccccc4)[C@H]3C[C@@]12O[C@@H]1O[C@H](CO)[C@@H](O)[C@H](O)[C@H]1O [PF, paeoniflorin]", "half-life", "h", 1.81),
]

* * *

test protocol: Pharmacokinetics in rat plasma after intragastric administration, normoxia (UPLC-MS/MS)
Type: in vivo, Sprague-Dawley rats
study conditions: male, Sprague-Dawley, rat, plasma, po, 14 mg/kg, AF in TPG (TPG dose with AF 14 mg/kg), intragastric, mean ± SD, n = 6

# compound, units label, Cmax
records = [
    ("CC12CC(O)C3CC1(OC1OC(CO)C(O)C(O)C1O)C3(COC(=O)c1ccccc1)C(=O)O2 (stereo not shown) [AF, albiflorin]", "ng/mL", 56.9),
]

* * *

test protocol: Pharmacokinetics in rat plasma after intragastric administration, normoxia (UPLC-MS/MS)
Type: in vivo, Sprague-Dawley rats
study conditions: male, Sprague-Dawley, rat, plasma, po, 14 mg/kg, AF alone, 14 mg/kg intragastric, normoxia, mean ± SD, n = 6, read-out: MRT(0→24 h) (converted)

# compound, units label, MRT last
records = [
    ("CC12CC(O)C3CC1(OC1OC(CO)C(O)C(O)C1O)C3(COC(=O)c1ccccc1)C(=O)O2 (stereo not shown)", "h", 2.25),
]
